System: BaF3
Test: cells
Settings: Mus musculus, BaF3, 72 h
PROPERTY: log10 IC50 (log10 of the value in nM)
Recall that a logarithmic scale is used here: each number is log10 of IC50 in nM.

Some molecules with known log10 IC50 results, for comparison:
CCN(CC)CCCOc1cc2nccc(N(C)c3ccc(NC(=O)NN4C(=O)CSC4c4c(F)cccc4F)cc3)c2cc1OC (stereo unspecified) = 3.84
CCN1CCN(CCCOc2cc3nccc(Oc4c(F)cc(NC(=O)NN5C(=O)CSC5c5ccccc5F)cc4F)c3cc2OC)CC1 (stereo unspecified) = 1.94
CCN(CC)CCCOc1cc2nccc(Oc3ccc(NC(=O)NN4C(=O)CSC4c4c(F)cccc4F)cc3OC)c2cc1OC (stereo unspecified) = 2.20

// recorded log10 IC50 for CCN1CCN(CCCOc2cc3nccc(Oc4c(F)cc(NC(=O)NN5C(=O)CSC5c5c(F)cccc5F)cc4F)c3cc2OC)CC1 (stereo unspecified) : 1.88

// recorded log10 IC50 for CCN(CC)CCCOc1cc2nccc(Oc3ccc(NC(=O)NN4C(=O)CSC4c4c(F)cccc4F)cc3C)c2cc1OC (stereo unspecified) : 2.92

// recorded log10 IC50 for CCN(CC)CCCOc1cc2nccc(Oc3ccc(CC(=O)NN4C(=O)CSC4c4c(F)cccc4F)cc3)c2cc1OC (stereo unspecified) : 3.41

// recorded log10 IC50 for CCN1CCN(CCCOc2cc3nccc(Oc4ccc(NC(=O)NN5C(=O)CSC5c5c(F)cccc5F)cc4)c3cc2OC)CC1 (stereo unspecified) : 2.11

// recorded log10 IC50 for CCN(CC)CCCOc1cc2nccc(Nc3ccc(NC(=O)NN4C(=O)CSC4c4c(F)cccc4F)cc3)c2cc1OC (stereo unspecified) : 3.65

// recorded log10 IC50 for CCN(CC)CCCOc1cc2nccc(Oc3ccc(C(=O)NN4C(=O)CSC4c4c(F)cccc4F)cc3)c2cc1OC (stereo unspecified) : 2.97

// recorded log10 IC50 for COc1cc2nccc(Oc3c(F)cc(NC(=O)NN4C(=O)CSC4c4c(F)cccc4F)cc3F)c2cc1OC (stereo unspecified) : 2.81

----------
System: HCT-116
Assay: cells
Conditions: Homo sapiens
PROPERTY: IC50 (nM)
Report only the number, with the unit nM understood.

Some compounds with known IC50 results, for comparison:
CNC(=O)c1c(C)oc2cc(Oc3ncnc4cc(OC)c(OC)cc34)ccc12 = 800
CCN1CCN(CCCOc2cc3nccc(Oc4ccc(NC(=O)NN5C(=O)CSC5c5c(F)cccc5F)cc4)c3cc2OC)CC1 (stereo not drawn) = 110
CCN(CC)CCCOc1cc2nccc(Oc3ccc(NC(=O)NN4C(=O)CSC4c4c(F)cccc4F)cc3C)c2cc1OC (stereo not drawn) = 640
CCN1CCN(CCCOc2cc3nccc(Oc4c(F)cc(NC(=O)NN5C(=O)CSC5c5ccccc5F)cc4F)c3cc2OC)CC1 (stereo not drawn) = 140
CCN1CCN(CCCOc2cc3nccc(Oc4c(F)cc(NC(=O)NN5C(=O)CSC5c5ccc(F)cc5)cc4F)c3cc2OC)CC1 (stereo not drawn) = 200
COc1cc2c(Oc3ccc(NC(=O)NN4C(=O)CSC4c4c(F)cccc4F)cc3)ccnc2cc1OCCCN1CCCC1 (stereo not drawn) = 810

// recorded IC50 for CCN1CCN(CCCOc2cc3nccc(Oc4c(F)cc(NC(=O)NN5C(=O)CSC5c5c(F)cccc5F)cc4F)c3cc2OC)CC1 (stereo not drawn) : 540

----------
Assay: Cytotoxicity against human FHC cells assessed as cell growth inhibition by MTT assay
Type: toxicity, cell-based
Catalogue of pIC50 readings, one per entry.
Note: pIC50 values are expressed as the negative base-10 logarithm of concentration in M.

Some molecules with known pIC50 results, for comparison:
CCN(CC)CCCOc1cc2nccc(Oc3c(F)cc(NC(=O)NN4C(=O)CSC4c4c(F)cccc4F)cc3F)c2cc1OC (stereo unspecified) = 5.42
CCN1CCN(CCCOc2cc3nccc(Oc4c(F)cc(NC(=O)NN5C(=O)CSC5c5ccc(F)cc5F)cc4F)c3cc2OC)CC1 (racemic) = 5.38

As a next step, examine the molecule that follows.
// recorded pIC50 for `CCN1CCN(CCCOc2cc3nccc(Oc4c(F)cc(NC(=O)NN5C(=O)CS[C@@H]5c5ccc(F)cc5F)cc4F)c3cc2OC)CC1` : 5.35

----------
Catalogue of remaining at 0.75 h, 1 µM readings, one per entry.
Assay: Metabolic stability in human liver microsomes assessed as parent compound remaining at 1 uM measured after 45 mins in presence of NADPH by LC-MS/MS analysis
Type: ADME, Microsome
Conditions: read-out: Stability
Report only the number, with the unit % understood.

O=c1ccc2ccc(O)cc2o1 [UMBELLIFERONE] = 0.8
CCN1CCN(CCCOc2cc3nccc(Oc4c(F)cc(NC(=O)NN5C(=O)CSC5c5c(F)cccc5F)cc4F)c3cc2OC)CC1 (stereo not given) = 70.1
CCN1CCN(CCCOc2cc3nccc(Oc4c(F)cc(NC(=O)NN5C(=O)CSC5c5ccc(F)cc5F)cc4F)c3cc2OC)CC1 (racemic) = 82
C[C@]12CC[C@H]3[C@@H](CCC4=CC(=O)CC[C@@]43C)[C@@H]1CC[C@@H]2O [TESTOSTERONE] = 8.1

As a next step, examine the compound that follows.
// recorded remaining at 0.75 h, 1 µM for CCN1CCN(CCCOc2cc3nccc(Oc4c(F)cc(NC(=O)NN5C(=O)CSC5c5ccccc5F)cc4F)c3cc2OC)CC1 (stereo not given) : 78.2

----------
Catalogue of pIC50 readings, one per entry.
Tested on: HT-29
Test: cells
Conditions: Homo sapiens
Note: pIC50 values are expressed as the negative base-10 logarithm of concentration in M.

COc1cc2nccc(Oc3c(F)cc(NC(=O)NN4C(=O)CSC4c4c(F)cccc4F)cc3F)c2cc1OC (centres undefined) = 5.39
CCN(CC)CCCOc1cc2nccc(Oc3ccc(NC(=O)NN4C(=O)CSC4c4c(F)cccc4F)cc3)c2cc1OC (centres undefined) = 6.28

// recorded pIC50 for COc1cc2c(Oc3ccc(NC(=O)NN4C(=O)CSC4c4c(F)cccc4F)cc3)ccnc2cc1OCCCN1CCCC1 (centres undefined) : 6.80

// recorded pIC50 for CCN(CC)CCCOc1cc2nccc(Oc3ccc(NC(=O)NN4C(=O)CSC4c4c(F)cccc4F)cc3C)c2cc1OC (centres undefined) : 6.66

----------
System: HCT-116
Experiment: cells
Conditions: Homo sapiens
// NB: equality with 3000 nM counts as false; only IC50 strictly below is true

CCN(CC)CCCOc1cc2nccc(N(C)c3ccc(NC(=O)NN4C(=O)CSC4c4c(F)cccc4F)cc3)c2cc1OC (stereo not given) = false
COc1cc2nccc(Oc3c(F)cc(NC(=O)NN4C(=O)CSC4c4c(F)cccc4F)cc3F)c2cc1OC (stereo not given) = false
CCN1CCN(CCCOc2cc3nccc(Oc4c(F)cc(NC(=O)NN5C(=O)CSC5c5ccccc5)cc4F)c3cc2OC)CC1 (stereo not given) = true
CCN(CC)CCCOc1cc2nccc(Oc3ccc(NC(=O)NN4C(=O)CSC4c4c(F)cccc4F)cc3OC)c2cc1OC (stereo not given) = true

INPUT: Bench note: check whether CCN(CC)CCCOc1cc2nccc(Oc3c(F)cc(NC(=O)NN4C(=O)CSC4c4c(F)cccc4F)cc3F)c2cc1OC (stereo not given) shows IC50 below 3000 nM
OUTPUT: true

INPUT: Bench note: check whether CCN1CCN(CCCOc2cc3nccc(Oc4c(F)cc(NC(=O)NN5C(=O)CSC5c5ccc(F)cc5F)cc4F)c3cc2OC)CC1 (racemic) shows IC50 below 3000 nM
OUTPUT: true

INPUT: Bench note: check whether CCN(CC)CCCOc1cc2nccc(Oc3ccc(NC(=O)NN4C(=O)CSC4c4c(F)cccc4F)cc3)c2cc1OC (stereo not given) shows IC50 below 3000 nM
OUTPUT: true

----------
Catalogue of CLint scaled at 1 µM readings, one per entry.
Test: Metabolic stability in human liver microsomes assessed as intrinsic clearance at 1 uM measured upto 45 mins in presence of NADPH by LC-MS/MS analysis
Type: ADME, Microsome
Conditions: read-out: CLH
Report only the number, with the unit mL/min/kg understood.

CCN1CCN(CCCOc2cc3nccc(Oc4c(F)cc(NC(=O)NN5C(=O)CSC5c5ccccc5F)cc4F)c3cc2OC)CC1 (stereo not given) = 13.3
CCN1CCN(CCCOc2cc3nccc(Oc4c(F)cc(NC(=O)NN5C(=O)CSC5c5ccc(F)cc5F)cc4F)c3cc2OC)CC1 (racemic) = 10.7
C[C@]12CC[C@H]3[C@@H](CCC4=CC(=O)CC[C@@]43C)[C@@H]1CC[C@@H]2O [TESTOSTERONE] = 164
O=c1ccc2ccc(O)cc2o1 [UMBELLIFERONE] = 289

// recorded CLint scaled at 1 µM for CCN1CCN(CCCOc2cc3nccc(Oc4c(F)cc(NC(=O)NN5C(=O)CSC5c5c(F)cccc5F)cc4F)c3cc2OC)CC1 (stereo not given) : 19.8
